The reported measurements were obtained from patent US20260306640A1.

Assign DC50 to each entry below.
target: KAT2B (Homo sapiens); assay: KAT2B degradation, Western Blot (Jess), NCI-H1048 cells; format: cell-based; design: degrader, Western blot (Jess); settings: NCI-H1048 cells, KAT2B, 24 h, Western Blot, vs DMSO; read-out: KAT2B NCI-H1048 DC50
Sequence (Q92831 whole entry): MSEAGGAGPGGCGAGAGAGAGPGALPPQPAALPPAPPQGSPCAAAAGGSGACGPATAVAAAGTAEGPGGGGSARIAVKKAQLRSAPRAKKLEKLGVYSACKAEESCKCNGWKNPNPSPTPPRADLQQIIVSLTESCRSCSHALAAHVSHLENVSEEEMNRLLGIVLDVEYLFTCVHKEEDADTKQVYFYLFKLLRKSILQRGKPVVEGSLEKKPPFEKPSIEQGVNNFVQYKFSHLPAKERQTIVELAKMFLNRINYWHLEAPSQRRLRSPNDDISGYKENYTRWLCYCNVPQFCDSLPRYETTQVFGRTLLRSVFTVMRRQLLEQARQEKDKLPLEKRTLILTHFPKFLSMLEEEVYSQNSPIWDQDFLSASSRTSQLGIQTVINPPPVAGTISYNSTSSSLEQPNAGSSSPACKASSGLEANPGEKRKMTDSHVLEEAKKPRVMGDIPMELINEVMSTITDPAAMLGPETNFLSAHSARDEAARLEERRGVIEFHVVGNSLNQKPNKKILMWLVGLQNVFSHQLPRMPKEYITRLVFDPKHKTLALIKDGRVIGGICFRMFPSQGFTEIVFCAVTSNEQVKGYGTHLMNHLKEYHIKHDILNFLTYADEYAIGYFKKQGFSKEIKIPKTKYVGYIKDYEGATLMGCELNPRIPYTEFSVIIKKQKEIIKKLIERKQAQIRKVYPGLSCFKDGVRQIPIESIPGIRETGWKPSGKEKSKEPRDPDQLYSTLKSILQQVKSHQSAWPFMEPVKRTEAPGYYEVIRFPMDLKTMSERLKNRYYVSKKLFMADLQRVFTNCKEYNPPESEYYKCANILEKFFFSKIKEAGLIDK

Given the compound CN1C[C@H](Nc2cnn(C)c(=O)c2Cl)C[C@H](c2ccc(C(=O)N3CCC4(CC3)CCN(c3ccc5c(C6CCC(=O)NC6=O)cncc5c3)CC4)cc2)C1 (stereo partly drawn) [Compound 296] , write its reported DC50.
< 1 nM

Provide measured DC50 value, entry: CN1C[C@H](Nc2cnn(C)c(=O)c2Br)C[C@H](c2ccc(CN3CC(c4ccc(C5CCC(=O)NC5=O)cc4)C3)cc2)C1 (stereo partly drawn) [Compound 195]
> 30 nM

Entry CN1C[C@H](Nc2cnn(C)c(=O)c2Br)C[C@H](c2ccc(C(=O)N3CCC4(CC3)CCN(c3ccc(C5CCC(=O)NC5=O)c(F)c3)CC4)cc2)C1 (stereo partly drawn) [Compound 157] needs its DC50 filled in; supply it.
< 1 nM

Give the measured DC50 for CN1C[C@H](Nc2cnn(C)c(=O)c2Cl)C[C@H](c2ccc(N3CCC4(CC3)CCN(c3cccc(CN5CCC(=O)NC5=O)c3)CC4)cc2)C1 [Compound 401]
> 30 nM

Identify DC50 associated with the compound Cc1cc(C2CCC(=O)NC2=O)ccc1N1CCC2(CCN(C(=O)c3ccc([C@H]4C[C@@H](Nc5cnn(C)c(=O)c5Cl)CN(C)C4)cc3)CC2)CC1 (stereo partly drawn) [Compound 250]
< 1 nM

Identify the reported DC50 for the following entry. CN1C[C@H](Nc2cnn(C)c(=O)c2Br)C[C@H](c2ccc(CN3C4CC3CN(c3cccc(C5CCC(=O)NC5=O)c3)C4)cc2)C1 (stereo partly drawn) [Compound 353]
> 30 nM

* * *

Please go through the items and note down their DC50.
biological target: KAT2B (Homo sapiens); test: KAT2B degradation, Western Blot (Jess), NCI-H1048 cells; type: cell-based; set-up: degrader, Western blot (Jess); conditions: NCI-H1048 cells, KAT2B, 24 h, Western Blot, vs DMSO; read-out: KAT2B NCI-H1048 DC50

System KAT2B (Homo sapiens). Read-out DC50. Item CN1C[C@H](Nc2cnn(C)c(=O)c2Br)C[C@H](c2ccc(C(=O)N3CCC4(CC3)CCN(c3ccc(C5CCC(=O)NC5=O)cc3C(F)(F)F)CC4)cc2)C1 (some centres unmarked) [Compound 220] . Report value.
1 to 30 nM

Identify measured DC50 obtained with KAT2B (Homo sapiens) for CN1C[C@H](Nc2cnn(C)c(=O)c2Br)C[C@H](c2ccc(C(=O)N3CCC4(CC3)CCN(c3ccc(C5CCC(=O)NC5=O)c(C(F)(F)F)c3)CC4)cc2)C1 (some centres unmarked) [Compound 221] .
> 30 nM

Name the recorded DC50 of CN1C[C@H](Nc2cnn(C)c(=O)c2Br)C[C@H](c2ccc(C(=O)N3CCC4(CC3)CCN(c3ccc(C5CCC(=O)NC5=O)cc3OC(F)(F)F)CC4)cc2)C1 (some centres unmarked) [Compound 259] , assay system KAT2B (Homo sapiens).
1 to 30 nM

# return DC50 for CN1C[C@H](Nc2cnn(C)c(=O)c2Br)C[C@H](c2ccc(C(=O)N3CCC4(CC3)CN(c3ccc(C5CCC(=O)NC5=O)cc3)C4)cc2)C1 (some centres unmarked) [Compound 126] , test system: KAT2B (Homo sapiens)
1 to 30 nM

Fill in: DC50 on KAT2B (Homo sapiens), entry CN1C[C@H](Nc2cnn(C)c(=O)c2Br)C[C@H](c2ccc(C(=O)N3CCC(C#Cc4ccc(C5CCC(=O)NC5=O)cc4)CC3)cc2)C1 (some centres unmarked) [Compound 334]
1 to 30 nM

Determine reported DC50 for CN1C[C@H](Nc2cnn(C)c(=O)c2Cl)C[C@H](c2ccc(C(=O)N3CCC4(CC3)CCN(c3cccc5c3C(=O)N(C3CCC(=O)NC3=O)C5=O)CC4)cc2)C1 (some centres unmarked) [Compound 302] ; test system: KAT2B (Homo sapiens).
1 to 30 nM

Provide DC50, system KAT2B (Homo sapiens), entry Cc1c(N[C@@H]2C[C@H](c3ccc(C(=O)N4CCC(C#Cc5ccc(C6CCC(=O)NC6=O)cc5)CC4)cc3)CN(C)C2)cnn(C)c1=O (some centres unmarked) [Compound 333]
> 30 nM

Find DC50 for Cc1cc(N2CCC3(CCN(C(=O)c4ccc([C@H]5C[C@@H](Nc6cnn(C)c(=O)c6Cl)CN(C)C5)cc4)CC3)CC2)cc(C)c1N1CCC(=O)NC1=O [Compound 399] on KAT2B (Homo sapiens) and write it down.
> 30 nM
